Biological target: human recombinant 5-HT2C receptor (Homo sapiens, UniProt P28335)
Construct: expressed in transfected cells; host or cells: Jump-In HEK cells (membrane preparation)
Sequence (P28335 33-458): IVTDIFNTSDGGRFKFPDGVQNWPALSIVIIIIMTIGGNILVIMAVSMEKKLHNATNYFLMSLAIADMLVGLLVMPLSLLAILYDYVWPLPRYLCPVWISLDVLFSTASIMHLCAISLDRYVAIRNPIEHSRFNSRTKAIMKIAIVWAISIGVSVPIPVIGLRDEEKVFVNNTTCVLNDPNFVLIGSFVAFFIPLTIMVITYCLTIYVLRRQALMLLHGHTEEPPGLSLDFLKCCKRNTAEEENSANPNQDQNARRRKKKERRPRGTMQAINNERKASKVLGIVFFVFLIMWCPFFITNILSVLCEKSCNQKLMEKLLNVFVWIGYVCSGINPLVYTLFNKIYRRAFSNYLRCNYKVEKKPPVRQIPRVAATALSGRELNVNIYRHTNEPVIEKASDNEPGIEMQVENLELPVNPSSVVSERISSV
Assay: Test Example 2: 5-HT2C receptor binding inhibition test ([3H]-Mesulergine; non-specific ligand Serotonin HCl)
Details: human serotonin 5-HT2C receptor binding activity
Cut-off 5 nM on Ki: below means y, at or above means n.

>  <molecule>
Cc1ccc(CO)cc1-c1cc(Nc2ncc(C(F)(F)F)cc2F)ncc1OCCO

>  <answerLabel>
n

$$$$

Prompt line: Is Ki strictly under 5 nM for the entry "Cc1nc(C)c(-c2nc(Nc3ccc(OC(F)(F)F)c(C)n3)c(F)cc2OCCO)c(C)n1" ?
Response line: y

Prompt line: Ki strictly < 5 nM for this molecule? "COCc1nc(C)c(-c2cc(Nc3ncc(-c4cccc(F)c4)cc3Cl)ncc2OCCO)c(C)n1"
Response line: y

Prompt line: Is the reported Ki for "COc1cnc(Nc2cc(-c3c(Cl)cnn3C)c(OCCO)cc2F)nc1" strictly below 5 nM?
Response line: n

Prompt line: Problem: For the molecule "Cc1nc(C)c(-c2cc(Nc3ncc(-c4ccc(C(F)(F)F)cc4)cn3)ncc2OCCO)c(C)n1" , is Ki under 5 nM?
Response line: y

Prompt line: is_below(Ki, 5 nM) for "COCc1nc(C)c(-c2cc(Nc3ncc(-c4ncc(F)cn4)cc3Cl)ncc2OCCO)c(C)n1" ?
Response line: y

Prompt line: Say whether its Ki is strictly beneath 5 nM. Entry: Cc1nc(C2CCO2)nc(C)c1-c1cc(Nc2ncc(C(F)(F)F)cc2Cl)ncc1OCCO (racemic)
Response line: n

Prompt line: Hello, is Ki of the following molecule strictly smaller than 5 nM? "COCCc1nc(C)c(-c2cc(Nc3ncc(C(F)(F)F)cc3Cl)ncc2OCCO)c(C)n1"
Response line: y
